measurement.protocol: Pharmacokinetic experiment in mice
Assay type: in vivo, CD-1 female mice
settings: female, CD-1, mouse, plasma, Injection (1 mg/kg), intravenous, read-out: Vdss
measured.attribute: Vd (L/kg)
Answers are plain numbers, in L/kg.

Known Vd results, listed for orientation:
{"compound": "[2H]c1c(F)ccc(NC(=O)c2ccc(CNC(=O)/C=C/c3cccnc3)cc2)c1N [Compound 2]", "measured.attribute": "Vd", "recorded.result": 1.61}
{"compound": "Nc1cc(F)ccc1NC(=O)c1ccc(CNC(=O)/C=C/c2cccnc2)cc1 [Chidamide, reference compound]", "measured.attribute": "Vd", "recorded.result": 1.55}
{"compound": "[2H]/C(=C\\C(=O)NCc1ccc(C(=O)Nc2ccc(F)cc2N)cc1)c1cccnc1 [Compound 8]", "measured.attribute": "Vd", "recorded.result": 1.21}
{"compound": "[2H]c1ncccc1/C=C/C(=O)NCc1ccc(C(=O)Nc2ccc(F)cc2N)cc1 [Compound 9]", "measured.attribute": "Vd", "recorded.result": 0.44}
{"compound": "[2H]c1cncc(/C=C/C(=O)NCc2ccc(C(=O)Nc3ccc(F)cc3N)cc2)c1 [Compound 11]", "measured.attribute": "Vd", "recorded.result": 0.62}

Let's switch to this compound now.
// query Vd value for entry [2H]c1cc(C(=O)Nc2ccc(F)cc2N)ccc1CNC(=O)/C=C/c1cccnc1 [Compound 5]
1.13

---

measurement.protocol: Stability in liver microsomes
Format: in vitro ADME
settings: Human liver microsomes 0.5 mg/mL, 1 µM compound, NADPH, 37 °C
Please provide measured CLint scaled at 1 µM for the entries that follow.

{"compound": "[2H]c1ncccc1/C=C/C(=O)NCc1ccc(C(=O)Nc2ccc(F)cc2N)cc1 [Compound 9]", "CLint scaled at 1 µM": "4.59 mL/min/kg"}

Value sought for every listed compound: CLint scaled at 1 µM.
1. [2H]c1cncc(/C=C/C(=O)NCc2ccc(C(=O)Nc3ccc(F)cc3N)cc2)c1 [Compound 11]
2. [2H]c1ccc(/C=C/C(=O)NCc2ccc(C(=O)Nc3ccc(F)cc3N)cc2)cn1 [Compound 12]

["23.7 mL/min/kg", "2.87 mL/min/kg"]

Value sought for every listed compound: CLint scaled at 1 µM.
1. Nc1cc(F)ccc1NC(=O)c1ccc(CNC(=O)/C=C/c2cccnc2)cc1 [Chidamide, reference compound]
2. [2H]c1cc(C(=O)Nc2ccc(F)cc2N)ccc1CNC(=O)/C=C/c1cccnc1 [Compound 5]
3. [2H]c1cc(CNC(=O)/C=C/c2cccnc2)ccc1C(=O)Nc1ccc(F)cc1N [Compound 4]
4. [2H]/C(=C\C(=O)NCc1ccc(C(=O)Nc2ccc(F)cc2N)cc1)c1cccnc1 [Compound 8]

1. 20.9 mL/min/kg
2. 7.95 mL/min/kg
3. 19.5 mL/min/kg
4. 18.4 mL/min/kg

---

measurement.protocol: Stability in liver microsomes
Type: in vitro ADME
settings: Human liver microsomes 0.5 mg/mL, 1 µM compound, NADPH, 37 °C
Please provide measured half-life at 1 µM for the entries that follow.
The reply should consist of the numeric value with the unit placed after it.

Value sought for every listed compound: half-life at 1 µM.
1. Nc1cc(F)ccc1NC(=O)c1ccc(CNC(=O)/C=C/c2cccnc2)cc1 [Chidamide, reference compound]
2. [2H]c1cc(CNC(=O)/C=C/c2cccnc2)ccc1C(=O)Nc1ccc(F)cc1N
3. [2H]c1ncccc1/C=C/C(=O)NCc1ccc(C(=O)Nc2ccc(F)cc2N)cc1
4. [2H]c1ccc(/C=C/C(=O)NCc2ccc(C(=O)Nc3ccc(F)cc3N)cc2)cn1

["1.38 h", "1.49 h", "6.32 h", "10.1 h"]

From: patent EP4631931A1
